- tested.target: T1, PD-1-His (UniProt Q15116 25-167, limits assumed)
- T1 construct: also called antigen PD-1-His; not shown: His tag
- T1 sequence (Q15116 25-167 limits assumed): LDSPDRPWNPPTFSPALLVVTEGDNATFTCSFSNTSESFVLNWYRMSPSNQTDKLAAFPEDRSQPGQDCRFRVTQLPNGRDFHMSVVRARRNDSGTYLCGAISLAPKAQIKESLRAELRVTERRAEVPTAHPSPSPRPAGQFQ
- protocol.summary: ELISA on coated PD-1-His (60 ng/well), anti-human Fc-HRP
parameter: EC50 (read off the curve)

stdin: Request the reported EC50 (read off the curve) associated with DFPD1-9 full-length anti-PD-1 monoclonal antibody (antibody, human IgG4 S228P, kappa, V domains shown, Expressed in HEK293E cells and purified on protein A) VH: QVQLVESGGGVVQPGRSLRLDCKASGITFSNYGMHWVRQAPGKGLEWVAVIWYDSSRKYYADSVKGRFTISRDNSKNTLFLQMNSLRAEDTAVYYCATNNDYWGQGTLVTVSS VL: DIQMTQSPSSLSASVGDRVTITCRASQSIHNYLDWYQQKPGKAPKLLIYNASTRATGVPSRFSGSGSGTDFTLTISSLQPEDFATYYCQQELHLPLTFGQGTKVEIKR
stdout: ~6 ng/mL
